FYI, the data here is from patent US7973034B2.

Consider the following molecules; for each one, report its pKi.
# measuredOn: hiCE (Homo sapiens, UniProt O00748)
# methodNotes: Inhibition of hiCE-mediated activation of CPT-11 (SN-38 by HPLC)
# Format: biochemical
One number for each entry, as −log10 of the molar value.

CCOc1ccc(NS(=O)(=O)c2ccc(Cl)cc2)cc1 | 5.49
Cc1cc(NS(=O)(=O)c2ccccc2)ccc1NS(=O)(=O)c1ccccc1 | 6.62
O=S(=O)(Nc1c(F)c(F)c(NS(=O)(=O)c2ccc(Cl)cc2)c(F)c1F)c1ccc(Cl)cc1 | 6.96

Now for the molecule whose pKi we want.
Data request: Item "O=S(=O)(Nc1ccc(NS(=O)(=O)c2ccc(Cl)cc2)cc1)c1ccc(Cl)cc1" has what recorded pKi?
Data returned: 6.85

###

# measuredOn: hiCE (Homo sapiens)
# Sequence (O00748 27-559): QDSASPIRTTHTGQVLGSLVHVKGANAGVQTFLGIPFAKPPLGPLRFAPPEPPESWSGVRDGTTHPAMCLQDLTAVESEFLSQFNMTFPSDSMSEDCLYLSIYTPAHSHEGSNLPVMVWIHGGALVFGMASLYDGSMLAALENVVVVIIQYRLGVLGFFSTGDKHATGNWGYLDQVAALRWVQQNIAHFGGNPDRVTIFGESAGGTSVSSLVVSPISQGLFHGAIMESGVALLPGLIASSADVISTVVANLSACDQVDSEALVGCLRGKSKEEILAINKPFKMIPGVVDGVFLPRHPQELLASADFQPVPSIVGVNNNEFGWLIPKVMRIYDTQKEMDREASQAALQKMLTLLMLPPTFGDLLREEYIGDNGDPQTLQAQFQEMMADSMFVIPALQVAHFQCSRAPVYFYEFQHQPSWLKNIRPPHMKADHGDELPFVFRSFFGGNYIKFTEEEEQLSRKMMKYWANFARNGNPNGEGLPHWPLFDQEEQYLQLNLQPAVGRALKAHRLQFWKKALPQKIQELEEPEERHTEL
# methodNotes: Inhibition of hiCE-mediated activation of CPT-11 (SN-38 by HPLC)
# Format: biochemical
# details: CPT-11 as substrate (100 μm), 1 hour at 37° C.; read-out: Ki hiCE
pKi: −log10 of the molar value.
Kindly state pKi for each of the entries shown.

# example entries with known answers
Cc1cc(C)c(S(=O)(=O)Nc2ccccc2)cc1S(=O)(=O)Nc1ccccc1 | < 4.00
O=S(=O)(Nc1ccc(NS(=O)(=O)c2ccc(Cl)cc2)c2ccccc12)c1ccc(Cl)cc1 | < 4.00

# map each molecule to its pKi
1. O=S(=O)(Nc1ccc(Oc2ccccc2)cc1)c1ccc(Br)cc1
2. CS(=O)(=O)Nc1ccc(SSc2ccc(NS(C)(=O)=O)cc2)cc1
3. O=S(=O)(Nc1c(Cl)c(Cl)c(NS(=O)(=O)c2ccccc2)c(Cl)c1Cl)c1ccccc1
4. O=S(=O)(Nc1ccc(NS(=O)(=O)c2ccccc2)cc1)c1ccccc1

Data returned:
["< 4.00", "< 4.00", "< 4.00", 6.05]

###

What pKi was measured for each of the following?
# measuredOn: human liver carboxylesterase (hCE1) (Homo sapiens)
# Sequence (P23141 18-567): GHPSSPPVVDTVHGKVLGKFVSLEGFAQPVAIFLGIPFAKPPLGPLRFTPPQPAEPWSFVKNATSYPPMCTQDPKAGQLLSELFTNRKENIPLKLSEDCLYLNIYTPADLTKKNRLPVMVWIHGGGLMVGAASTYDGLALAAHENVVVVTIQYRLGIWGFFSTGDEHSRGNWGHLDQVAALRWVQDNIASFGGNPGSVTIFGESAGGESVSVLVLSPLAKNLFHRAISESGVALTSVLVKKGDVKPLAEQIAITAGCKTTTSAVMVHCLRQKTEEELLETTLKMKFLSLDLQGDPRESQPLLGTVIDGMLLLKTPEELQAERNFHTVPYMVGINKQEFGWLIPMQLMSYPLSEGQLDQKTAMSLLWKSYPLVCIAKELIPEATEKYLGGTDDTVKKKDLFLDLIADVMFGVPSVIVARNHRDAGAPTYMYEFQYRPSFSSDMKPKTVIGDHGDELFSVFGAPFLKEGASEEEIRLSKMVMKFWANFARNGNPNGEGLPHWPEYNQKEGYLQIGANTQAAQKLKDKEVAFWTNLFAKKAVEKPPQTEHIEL
# methodNotes: biochemical
# Type: biochemical
# details: o-NPA as substrate; Table 6; read-out: hCE1 Ki ± SE
One number for each entry, as −log10 of the molar value.

Cc1ccc(C(=O)C(=O)c2ccccc2)cc1[N+](=O)[O-] | 6.53
Cc1ccc(C(=O)C(=O)c2ccccc2)cc1C | 7.00
COc1ccc(C(=O)C(=O)c2ccc(OC)cc2)cc1 | 5.47

Each molecule below has a recorded value; state its pKi.
1. Cc1ccc(C(=O)C(=O)c2ccc(C)cc2)cc1
2. O=C(C(=O)c1ccc(Cl)cc1)c1ccccc1
3. COc1ccc(C(=O)C(=O)c2ccccc2Cl)cc1OC

Data returned:
1: 6.27; 2: 7.32; 3: 5.48

###

Please respond with reported Ki for every item in the list.
# measuredOn: rabbit liver carboxylesterase (rCE) (Oryctolagus cuniculus, UniProt P12337)
# Sequence (P12337 19-565): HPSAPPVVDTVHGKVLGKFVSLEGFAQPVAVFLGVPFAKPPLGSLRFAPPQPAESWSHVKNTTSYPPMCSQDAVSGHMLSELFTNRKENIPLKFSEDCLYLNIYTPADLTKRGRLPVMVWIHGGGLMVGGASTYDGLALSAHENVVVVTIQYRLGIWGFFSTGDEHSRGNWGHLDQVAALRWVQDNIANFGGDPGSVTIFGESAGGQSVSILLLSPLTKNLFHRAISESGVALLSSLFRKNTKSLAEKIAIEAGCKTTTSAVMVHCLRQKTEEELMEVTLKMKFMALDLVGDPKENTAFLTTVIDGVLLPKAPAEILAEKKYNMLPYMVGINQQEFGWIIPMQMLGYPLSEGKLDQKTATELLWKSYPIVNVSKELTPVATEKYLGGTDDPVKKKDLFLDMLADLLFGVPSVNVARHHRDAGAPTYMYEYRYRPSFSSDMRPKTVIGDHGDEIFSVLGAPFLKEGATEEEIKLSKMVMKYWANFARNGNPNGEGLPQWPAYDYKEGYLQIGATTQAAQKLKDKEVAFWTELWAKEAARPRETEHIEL
# methodNotes: biochemical
# Format: biochemical
# details: o-NPA as substrate; Table 5; read-out: Ki rCE
Answers are plain numbers, in µM.

// below: answered compounds
O=S(=O)(Nc1ccc(NS(=O)(=O)c2ccc(Cl)cc2)cc1)c1ccc(Cl)cc1 | 1.2
O=S(=O)(Nc1ccc(Oc2ccccc2)cc1)c1ccc(Br)cc1 | 0.319
CS(=O)(=O)Nc1ccc(SSc2ccc(NS(C)(=O)=O)cc2)cc1 | 0.739
O=S(=O)(Nc1ccc(NS(=O)(=O)c2ccccc2)cc1)c1ccccc1 | 1.55
Cc1cc(NS(=O)(=O)c2ccccc2)ccc1NS(=O)(=O)c1ccccc1 | 3.23
CCOc1ccc(NS(=O)(=O)c2ccc(Cl)cc2)cc1 | 2

Data request: Return reported Ki; argument: "O=S(=O)(Nc1c(F)c(F)c(NS(=O)(=O)c2ccc(Cl)cc2)c(F)c1F)c1ccc(Cl)cc1"
Data returned: 0.522

###

# measuredOn: human small intestine carboxylesterase (hiCE) (Homo sapiens)
# methodNotes: biochemical
# Format: biochemical
# details: o-NPA as substrate; Table 5; read-out: Ki hiCE
Give Ki for every item shown.
Answers are plain numbers, in nM.

O=S(=O)(Nc1c(Cl)c(Cl)c(NS(=O)(=O)c2ccccc2)c(Cl)c1Cl)c1ccccc1 | 451
CS(=O)(=O)Nc1ccc(SSc2ccc(NS(C)(=O)=O)cc2)cc1 | 767
O=S(=O)(Nc1ccc(NS(=O)(=O)c2ccccc2)cc1)c1ccccc1 | 1060
O=S(=O)(Nc1c(F)c(F)c(NS(=O)(=O)c2ccc(Cl)cc2)c(F)c1F)c1ccc(Cl)cc1 | 41.5
CCOc1ccc(NS(=O)(=O)c2ccc(Cl)cc2)cc1 | 1310

Below are some compounds; for each one, tell me its Ki.
1. COc1cc(OC)c(NC(=O)c2cc3ccccc3cc2O)cc1Cl
2. O=S(=O)(Nc1ccc(Oc2ccccc2)cc1)c1ccc(Br)cc1
3. O=S(=O)(Nc1ccc(NS(=O)(=O)c2ccc(Cl)cc2)cc1)c1ccc(Cl)cc1
4. Cc1cc(NS(=O)(=O)c2ccccc2)ccc1NS(=O)(=O)c1ccccc1
5. Cc1cc([N+](=O)[O-])ccc1NC(=O)Nc1ccccc1
6. O=S(=O)(Nc1ccc(NS(=O)(=O)c2ccc(Cl)cc2)c2ccccc12)c1ccc(Cl)cc1

Data returned:
[159, 165, 53.3, 365, 1520, 194]

###

Answer each item with its documented inhibition at 10 µM.
# measuredOn: human intestinal carboxylesterase in U373MGhiCE cells (Homo sapiens)
# Construct: expressed in transfected cells; host or cells: U373MG human glioma cells (U373MGhiCE)
# methodNotes: Inhibition of intracellular carboxylesterase in U373MGhiCE cells
# Type: cell-based
# output: number + unit

Worked examples follow.
O=S(=O)(Nc1c(Cl)c(Cl)c(NS(=O)(=O)c2ccccc2)c(Cl)c1Cl)c1ccccc1 [Compound 44] | 0.6%
O=S(=O)(Nc1ccc(NS(=O)(=O)c2ccc(Cl)cc2)cc1)c1ccc(Cl)cc1 [Compound 45] | 7.5%
Cc1cc(NS(=O)(=O)c2ccccc2)ccc1NS(=O)(=O)c1ccccc1 [Compound 49] | 7.6%
CS(=O)(=O)Nc1ccc(SSc2ccc(NS(C)(=O)=O)cc2)cc1 [Compound 50] | 14.6%
Cc1cc(C)c(S(=O)(=O)Nc2ccccc2)cc1S(=O)(=O)Nc1ccccc1 [Compound 48] | 8.9%

Kindly consider the entry below.
Data request: Provide the documented inhibition at 10 µM with human intestinal carboxylesterase in U373MGhiCE cells (Homo sapiens) as the system for O=S(=O)(Nc1c(F)c(F)c(NS(=O)(=O)c2ccc(Cl)cc2)c(F)c1F)c1ccc(Cl)cc1 [Compound 59]
Data returned: 8.3%

###

# measuredOn: rabbit liver carboxylesterase (rCE) (Oryctolagus cuniculus)
# methodNotes: biochemical
# Assay type: biochemical
# details: read-out: rCE Ki ± SE
measuredQuantity: pKi
Numbers only, as −log10 of the molar value.

Data request: GET /values?readout=pKi&system=rabbit liver carboxylesterase (rCE) (Oryctolagus cuniculus)&item= "O=C(C(=O)c1cccc([N+](=O)[O-])c1)c1cccc([N+](=O)[O-])c1"
Data returned: 6.57
